Listed below: TGI values for each entry.
Tested on: CCRF-CEM leukemia
Test: NCI tumour cell line growth inhibition, 48 h
reportedProperty: TGI

N#C/C(=C/c1cccc(Oc2ccccc2)c1)c1ccccc1    > 100 µM
ONC1=Nc2cc(Cl)ccc2C(=S)N2CSCC12 (stereo not drawn)    > 100 µM
Nc1ccccc1CCN1CCN(CCCc2ccccc2)CC1    > 100 µM
O=C(NC(=O)c1c(F)cccc1F)Nc1cccc(Oc2ncc(Cl)cn2)c1    > 100 µM
O=C(NC1=C(Cl)C(=O)c2ccccc2C1=O)c1ccccc1    > 100 µM
O=C(/C=C/c1ccccc1)Nc1ncc(Cc2ccccc2Cl)s1    > 100 µM
COc1cc(C=O)c(-c2c(C=O)ccc3c2OCO3)c(OC)c1OC    > 100 µM
NC(N)=NS(=O)(=O)c1ccc(NNc2c3ccccc3nc3ccccc23)cc1    25.4 µM

The reported numbers originate from PubChem BioAssay (NCI).
